target: T1, V3-46s-42 Fab; assay: phage competition ELISA, ECD in solution (printed Phage50)
T1 construct: soluble Fab in SPR; also called V46s-42
T1 sequence (VH, as listed by the source, chain 1 of 2): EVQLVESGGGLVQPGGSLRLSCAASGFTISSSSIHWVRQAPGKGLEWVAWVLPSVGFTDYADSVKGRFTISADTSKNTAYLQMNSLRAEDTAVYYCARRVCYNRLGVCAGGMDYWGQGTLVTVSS
T1 sequence (VL, as listed by the source, chain 2 of 2): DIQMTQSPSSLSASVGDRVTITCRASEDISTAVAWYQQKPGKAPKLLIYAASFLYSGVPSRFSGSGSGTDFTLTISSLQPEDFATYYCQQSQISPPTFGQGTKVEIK
VALUE TYPE: IC50

INSERT INTO results (binder, result) VALUES
  ('mouse BR3 extracellular domain (receptor, also called mBR3-ECD; mBR-ECD) MGARRLRVRSQRSRDSSVPTQCNQTECFDPLVRNCVSCELFHTPDTGHTSSLEPGTALQPQEGS', '0.23 nM');
